B1: RIPK4 (parent)
chain: AAWQGHLPIVKLLAKQPGVSVNAQ

- Variants of: B1
- METHOD_NOTES: protein stability index of a GFP-peptide fusion (GPS, HEK-293T) (PSI 1-6); higher = more stable;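 also: lentivirally expressed fusions sorted by FACS into six bins by GFP to DsRed ratio, PSI derived from sequencing read proportions per bin multiplied by bin number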
- EXPERIMENTAL_SETUP: c terminus: a fixed tail appended
The label depends only on protein stability index: T if it is at least 3, F if it is smaller.

L7Y = F
V21T = F
V21M = F
V19K = F
G18V = F
K11I = F

# ---- query variant ----
Entry K15E : is its protein stability index no less than 3?
F

Sourced from the supplement of paper PMC10567573
